biological target: JAK3 (Homo sapiens, UniProt P52333); construct: The Ramos B-cell line was acquired from ATCC (ATCC Catalog No. CRL-1596); assay: Assay for CD23 expression on Ramos B-cells stimulated by IL-4 (Table IV: ability to inhibit JAK3 activity); details: tested under conditions described in Example 3 (so in the source)
pIC50: −log10 of the molar value. Where a name gives a salt, the structure may show the parent alone.
The following molecules are shown together with reported pIC50 values.

Reference set, count: 5
Cc1ccc(Nc2ncc(F)c(Nc3ccc4oc(=O)[nH]c4c3)n2)cc1C#N [Compound I-1, formate salt]
> 6.30
COc1cc(Nc2ncc([N+](=O)[O-])c(Nc3ccc4oc(=O)[nH]c4c3)n2)ccc1C [Compound I-44, trifluoroacetate salt]
< 5.00
Cc1cnc(Nc2cc(C)c3c(c2)C(=O)OC3)nc1Nc1ccc2oc(=O)[nH]c2c1
> 6.30
COc1ccc(Nc2ncc(C)c(Nc3ccc4oc(=O)[nH]c4c3)n2)c(F)c1OC [Compound I-50]
> 6.30
COc1cc(Nc2ncc(C)c(Nc3ccc4oc(=O)[nH]c4c3)n2)cc(C)c1Cl [Compound I-124, trifluoroacetate salt]
> 6.30

Q: Let me know recorded pIC50 for "COc1c(Br)ccc(Nc2ncc(C)c(Nc3ccc4oc(=O)[nH]c4c3)n2)c1F" , thanks.
A: > 6.30

Q: Query pIC50 for Cc1cnc(Nc2cc(C)c(C)c(C)c2)nc1Nc1ccc2oc(=O)n(COP(=O)(O)O)c2c1 [Compound I-136, dipotassium salt]
A: 5.30 to 6.30

----------
Molecular target: JAK3 (Homo sapiens, UniProt P52333)
Construct: The Ramos B-cell line was acquired from ATCC (ATCC Catalog No. CRL-1596)
Sequence (P52333 1-1124): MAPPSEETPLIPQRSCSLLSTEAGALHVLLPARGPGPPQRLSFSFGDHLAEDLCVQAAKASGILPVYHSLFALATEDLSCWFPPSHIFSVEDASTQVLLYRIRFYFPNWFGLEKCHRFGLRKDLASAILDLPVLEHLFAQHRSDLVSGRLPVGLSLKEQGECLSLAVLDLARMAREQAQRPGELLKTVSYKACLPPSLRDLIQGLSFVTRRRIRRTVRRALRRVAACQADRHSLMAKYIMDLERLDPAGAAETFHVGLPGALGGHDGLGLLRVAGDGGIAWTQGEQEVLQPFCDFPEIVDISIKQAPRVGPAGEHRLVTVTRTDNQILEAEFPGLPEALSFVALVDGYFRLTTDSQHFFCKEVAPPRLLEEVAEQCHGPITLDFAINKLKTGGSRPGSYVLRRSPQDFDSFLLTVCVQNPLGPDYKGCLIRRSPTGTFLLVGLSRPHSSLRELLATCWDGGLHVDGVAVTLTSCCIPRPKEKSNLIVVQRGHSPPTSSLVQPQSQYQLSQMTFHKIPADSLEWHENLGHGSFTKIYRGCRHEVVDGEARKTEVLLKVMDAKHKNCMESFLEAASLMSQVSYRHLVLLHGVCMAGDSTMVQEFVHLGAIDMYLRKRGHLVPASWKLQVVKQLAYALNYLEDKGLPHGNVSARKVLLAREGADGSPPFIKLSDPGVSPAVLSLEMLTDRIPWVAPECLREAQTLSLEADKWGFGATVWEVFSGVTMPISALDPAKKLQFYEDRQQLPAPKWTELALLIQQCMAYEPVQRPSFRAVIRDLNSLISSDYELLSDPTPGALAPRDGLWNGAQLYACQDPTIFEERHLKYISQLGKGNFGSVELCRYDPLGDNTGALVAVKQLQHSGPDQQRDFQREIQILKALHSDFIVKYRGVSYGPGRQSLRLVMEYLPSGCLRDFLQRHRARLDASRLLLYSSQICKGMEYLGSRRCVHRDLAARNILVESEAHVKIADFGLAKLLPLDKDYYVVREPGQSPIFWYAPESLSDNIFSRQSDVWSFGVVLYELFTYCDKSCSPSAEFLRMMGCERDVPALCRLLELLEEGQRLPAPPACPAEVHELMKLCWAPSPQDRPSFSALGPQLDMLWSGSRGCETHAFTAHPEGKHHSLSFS
Test: Assay for CD23 expression on Ramos B-cells stimulated by IL-4 (Table IV: ability to inhibit JAK3 activity)
Conditions: tested under conditions described in Example 3 (so in the source)
pIC50: −log10 of the molar value. Where a name gives a salt, the structure may show the parent alone.
observed-property: pIC50

Worked examples, 3 compounds total:
Cc1ccc(Nc2ncc(F)c(Nc3ccc4oc(=O)[nH]c4c3)n2)cc1S(C)(=O)=O [Compound I-167, trifluoroacetate salt]
> 6.30
COc1cc(Nc2ncc(F)c(Nc3cc(C)c4oc(=O)[nH]c4c3)n2)cc(C)c1C [Compound I-110, trifluoroacetate salt]
> 6.30
COc1ccc(Nc2ncc(F)c(Nc3ccc4oc(=O)[nH]c4c3)n2)cc1 [Compound I-196, formate salt]
> 6.30

Q: Give the reported pIC50 for this compound. Cc1cc(Nc2ncc(F)c(Nc3ccc4oc(=O)[nH]c4c3)n2)cc(C)c1F [Compound I-215]
A: > 6.30

Q: Annotate the compound COC(=O)c1cc(Nc2ncc(C)c(Nc3ccc4oc(=O)[nH]c4c3)n2)cc(C)c1C [Compound I-144] with its measured pIC50.
A: > 6.30
